Assay explanation: Viability Counterscreen for Primary qHTS for Inhibitors of ATXN expression; note: nearly all actives have a fitted effect of over 40% in size
Details: S2 cells (HEK-293 line with an ATXN2-luciferase reporter) viability, CellTiter-Fluor protease fluorescence, 24 h; series mostly up to 56.7 µM
Hit rate of the full screen: of about 400,000 compounds, about 1,900 (0.47%) were called active. About 14% were inconclusive and are not listed. Calls come from the whole dose curve; as a rule, active = well fitted cell-killing curve with a large enough effect; inconclusive = small, poorly fitted or top-dose-only effect, or effect the other way; inactive = no such curve, though single readings can be large or run the other way. The entries come from a sample that favours actives as a whole.
Result category, one only: Yes (active), No (inactive)

Query block: Recorded test outcome, item COc1cc(=O)n2c(c1C(=O)N(C)Cc1nonc1C)CCN(C(=O)c1ccc(C)cc1C)CC2
Result block: No

Query block: Recorded test outcome, item O=C(O)C(=Cc1ccc([N+](=O)[O-])cc1)CCc1ccccc1
Result block: No

Query block: Recorded test outcome, item COc1ccccc1CCNS(=O)(=O)c1cn(C)nc1C
Result block: No

Query block: Recorded test outcome, item Cn1c(=O)c2c(ncn2CCc2ccccc2)n(C)c1=O
Result block: No

Query block: Recorded test outcome, item CC(=O)Nc1ccc(C=CC(=O)c2ccc([N+](=O)[O-])cc2)cc1
Result block: No

Query block: Recorded test outcome, item CCCCOc1ccc(CN2C(=O)C(=O)c3cc(Br)cc(C)c32)cc1OC
Result block: Yes

Query block: Recorded test outcome, item Cc1cc(C(=O)NCC2Cc3cccc(-c4cncnc4)c3O2)c(C)o1 (stereo not drawn)
Result block: No

Query block: Recorded test outcome, item CCOc1ccc(NC(=O)CSc2nc3ccccc3c(=O)n2Cc2cccs2)cc1
Result block: No

Query block: Recorded test outcome, item Cc1coc2c(O)cc3c(c12)OC1(N2CCCCC2)C(=O)NCCCC31 (stereo not drawn)
Result block: Yes

Query block: Recorded test outcome, item Nc1cccc(OCCCCCOc2cccc(N)c2)c1
Result block: No

Query block: Recorded test outcome, item COc1ccc(CCN2C(=O)C(C)=C(C)C2=O)cc1OC
Result block: No

Query block: Recorded test outcome, item CCOC(=O)[C@H](CCc1ccccc1)N[C@@H](C)C(=O)N1CC2(C[C@H]1C(=O)O)SCCS2
Result block: No

Query block: Recorded test outcome, item CCOc1ccc(NC(=O)CSc2c3c(nc4ccccc24)CCCC3)cc1
Result block: Yes

----------
Assay explanation: Viability Counterscreen for Primary qHTS for Inhibitors of ATXN expression; note: nearly all actives have a fitted effect of over 40% in size; note: potency is the fitted concentration of half-maximal effect
Details: S2 cells (HEK-293 line with an ATXN2-luciferase reporter) viability, CellTiter-Fluor protease fluorescence, 24 h; series mostly up to 56.7 µM
The whole screen tested about 400,000 compounds, of which about 1,900 (0.47%) were called active. Not shown: some 14% with an inconclusive outcome. Only a selection was taken, and actives are over-represented in it overall.
Endpoint: Potency

INSERT INTO measurements (compound, endpoint, experimental_result) VALUES
  ('CCOC(=O)N1CCC(N2CCOc3ccc(CN4CCC(O)(c5cccnc5)CC4)cc3C2)CC1', 'Potency', 'inactive'),
  ('COc1cncc(-c2cnc3sc(NCCc4ccccn4)nn23)c1', 'Potency', 'inactive'),
  ('O=C(NCCc1ccccc1)c1cccc(NC(=O)c2ccccc2)c1', 'Potency', 'inactive'),
  ('CCOc1ccc(NS(=O)(=O)c2ccc(N)cc2)nn1', 'Potency', 'inactive'),
  ('CC(=O)Nc1ccc(-c2cn3cccnc3n2)cc1', 'Potency', 'inactive');

Query block: Please give the measured Potency for this compound: CC1(C(=O)NCC2CCOCC2)Cc2c(-c3cccc(C(N)=O)c3)ccnc2O1 (stereo not given)
Result block: inactive

----------
Assay explanation: Viability Counterscreen for Primary qHTS for Inhibitors of ATXN expression; note: nearly all actives have a fitted effect of over 40% in size
Details: S2 cells (HEK-293 line with an ATXN2-luciferase reporter) viability, CellTiter-Fluor protease fluorescence, 24 h; series mostly up to 56.7 µM
Out of some 400,000 compounds screened, about 1,900 (0.47%) were called active. Inconclusive results (about 14%) are left out. The call rests on the fitted dose curve; in most records, active means well fitted cell-killing curve with a large enough effect; inconclusive means small, poorly fitted or top-dose-only effect, or effect the other way; inactive means no such curve, though single readings can be large or run the other way. This excerpt belongs to a sample that is enriched for actives.
Result category, one only: Yes for active, No for inactive

Query block: Recorded test outcome, item CCC(C(=O)OCCN(CC)CC)c1ccccc1 (stereo not given)
Result block: No

Query block: Recorded test outcome, item CO[C@]1(NC(=O)CSC(F)F)C(=O)N2C(C(=O)O)=C(CSc3nnnn3CCO)CO[C@H]21
Result block: No

Query block: Recorded test outcome, item COc1cccc(CNc2nc3cc(-c4csc5ccccc45)sc3c(=O)n2C)c1
Result block: No

Query block: Recorded test outcome, item O=C(CCl)Nc1ccc(Sc2ccc(NC(=O)CCl)cc2)cc1
Result block: Yes

Query block: Recorded test outcome, item COc1ccc(Cl)cc1N(CC(=O)N/N=C/c1ccc(OCC(N)=O)cc1)S(C)(=O)=O
Result block: No

Query block: Recorded test outcome, item Cc1oc2ccc(O)c(CN3CCOCC3)c2c1C(=O)Nc1cccc(Cl)c1C
Result block: No

Query block: Recorded test outcome, item COc1ccc(CCNc2ncnc3sc(C(=O)N4CCCC4)c(C)c23)cc1OC
Result block: No

Query block: Recorded test outcome, item CCS(=O)(=O)Nc1cc(C(=O)N2C[C@@H](C)O[C@@H](C)C2)c2c(c1)nc(-c1ccccc1)n2C
Result block: No

Query block: Recorded test outcome, item CC(C)(C)C(=O)c1c(N)[nH]c(C(=O)c2ccccc2)c1-c1ccc(F)cc1
Result block: No

Query block: Recorded test outcome, item COC(=O)c1ccc2c(c1)N(CC(=O)Nc1ccc(C)c(C)c1)C(=O)c1ccccc1S2
Result block: No

Query block: Recorded test outcome, item Cc1cc(C)c2oc(C(=O)Nc3ccc(S(=O)(=O)N4CCCCCC4)cc3)cc(=O)c2c1
Result block: No

Query block: Recorded test outcome, item Cc1cccc(CNC(=O)c2cnn(-c3nccc(-c4ccccc4F)n3)c2C2CC2)n1
Result block: No

Query block: Recorded test outcome, item Oc1ccc2ccccc2c1N=Nc1nccs1
Result block: Yes

Query block: Recorded test outcome, item Oc1ccc(N=Nc2nccs2)c(O)c1
Result block: Yes

Query block: Recorded test outcome, item COC(=O)CCCCCN1C(=O)NC(c2ccc(-c3ccccc3)cc2)C(C(=O)OCc2ccccc2)=C1C (stereo not given)
Result block: No

Query block: Recorded test outcome, item C=C1C(=O)[C@]23C[C@H]1CCC2[C@@]1(C)C(C[C@@H]3O)[C@](C)(C(=O)O)CC[C@@H]1O (stereo not given in full)
Result block: Yes

Query block: Recorded test outcome, item Cc1cccc(Cc2c(C)nc3nc(SCc4ccccc4Cl)nn3c2C)c1
Result block: No

Query block: Recorded test outcome, item Cc1nc2cc(NC(=O)[C@@H]3C[C@@H](Sc4ccccn4)CN3Cc3ccccc3C)ccc2s1
Result block: No

Query block: Recorded test outcome, item O=C(OCC(O)CO)c1ccccc1Nc1ccnc2c(C(F)(F)F)cccc12 (stereo not given)
Result block: No

Query block: Recorded test outcome, item CCc1nc2c(OCCc3cccc(OC)c3)cccn2c1N(C)C(=O)c1ccc(C)cc1
Result block: No

Query block: Recorded test outcome, item O=C1CCN(Cc2ccc(-c3ccccc3)cc2)CCN1Cc1ccccn1
Result block: No

Query block: Recorded test outcome, item CN(C)C(=O)[C@@H]1C[C@@H](Sc2nc3ccccc3[nH]2)CN1Cc1ccc(Cl)cc1
Result block: No

Query block: Recorded test outcome, item O=C(COC(=O)CCc1c[nH]c(=O)[nH]1)Nc1ccccc1Cl
Result block: No

Query block: Recorded test outcome, item Cc1nc2ccccc2nc(C)c1=NOCc1ccc(Cl)cc1Cl
Result block: No

Query block: Recorded test outcome, item CCOC(=O)[C@]12CCC=C1N(CCC1=CCCCC1)C(=O)[C@H](CC(=O)NCc1ccc(C)o1)C2
Result block: No

----------
Assay explanation: Viability Counterscreen for Primary qHTS for Inhibitors of ATXN expression; note: nearly all actives have a fitted effect of over 40% in size
Details: S2 cells (HEK-293 line with an ATXN2-luciferase reporter) viability, CellTiter-Fluor protease fluorescence, 24 h; series mostly up to 56.7 µM
In all, about 400,000 compounds went through this assay and about 1,900 (0.47%) were called active. About 14% were inconclusive and are not listed. Calls follow the shape of the dose curve; as a rule, active = well fitted cell-killing curve with a large enough effect; inconclusive = small, poorly fitted or top-dose-only effect, or effect the other way; inactive = no such curve, though single readings can be large or run the other way. What follows is part of a selection rich in actives, with near analogues and random picks from the rest.
Result category, one only: True for active, False for inactive

Query block: Recorded test outcome, item Oc1ccc(Br)cc1/C=N/Nc1ccccn1
Result block: True

Query block: Recorded test outcome, item CCN(CC)c1ccc(/C=N/NC(=O)c2cnccn2)c(O)c1
Result block: True

Query block: Recorded test outcome, item CC(=O)Nc1ccc(C=Cc2ccc([N+](=O)[O-])cc2)cc1
Result block: False

Query block: Recorded test outcome, item COc1ccc(NC(=O)C/C(C)=N/NC(=O)c2cnccn2)cc1Cl
Result block: False
